Value source: patent US20210070881A1

- System Name: T1, recombinant BACE1 (BACE1 extracellular domain, R&D Systems Cat#931-AS) (UniProt P56817 22-457)
- T1 construct: extracellular domain; also called BACE1 extracellular domain protein
- T1 sequence (P56817 22-457): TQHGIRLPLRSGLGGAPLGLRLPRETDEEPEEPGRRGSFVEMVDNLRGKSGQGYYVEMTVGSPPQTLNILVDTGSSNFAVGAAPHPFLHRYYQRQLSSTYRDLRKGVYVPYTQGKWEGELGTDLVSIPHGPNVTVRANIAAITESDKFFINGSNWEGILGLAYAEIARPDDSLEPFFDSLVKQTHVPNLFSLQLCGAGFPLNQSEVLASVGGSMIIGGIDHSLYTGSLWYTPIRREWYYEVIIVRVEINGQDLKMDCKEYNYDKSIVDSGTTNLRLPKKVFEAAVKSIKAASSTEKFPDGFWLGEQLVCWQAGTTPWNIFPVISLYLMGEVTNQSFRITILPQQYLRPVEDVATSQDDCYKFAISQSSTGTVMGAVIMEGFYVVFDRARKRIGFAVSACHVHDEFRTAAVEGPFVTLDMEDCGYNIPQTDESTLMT
- Test Name: SPR Biacore
Quantity Name: pKd
Schema: pKd number; meaning minus log10 of the concentration expressed in molar units.

Lookup: For the binder 2H8.31 (antibody, human IgG1, V domains shown, human IgG1/kappa; also called 2H8_HC + 2H8_LCvar6) VH: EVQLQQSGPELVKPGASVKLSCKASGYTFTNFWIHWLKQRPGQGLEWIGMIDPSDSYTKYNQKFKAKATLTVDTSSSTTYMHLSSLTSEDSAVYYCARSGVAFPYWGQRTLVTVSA VL: DIQMTQSQKFMSKSVGDRVSVTCKASQNVGSNVAWYQQKSGQSPKSLIYSASHRYSGVPDRFTGSGSGTDFTLTISNVQSEDLADYFCQQYNSYPYTFGGGTRLEIK , report pKd.
Found: 7.95

Lookup: Entry 2H8.39 (antibody, human IgG1, V domains shown, human IgG1/kappa; also called 2H8_HCvar3 + 2H8_LCvar7) VH: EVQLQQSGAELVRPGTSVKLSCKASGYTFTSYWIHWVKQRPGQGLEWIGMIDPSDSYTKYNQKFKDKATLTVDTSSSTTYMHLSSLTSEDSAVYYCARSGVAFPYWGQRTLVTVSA VL: DILMTQSQKFMSTSVGDRVSVTCKASQNVGRNVAWYQQISGQSPKPLIYSASHRYSGVPDRFTGSGSGTDFTLTISNVQSEDLVEFFCQQYNSYPYTFGGGTKLEIK needs its pKd filled in; supply it.
Found: 7.89

Lookup: Specify reported pKd for the binder shown: 2H8.25 (antibody, human IgG1, V domains shown, human IgG1/kappa; also called 2H8_HC + 2H8_LCvar5) VH: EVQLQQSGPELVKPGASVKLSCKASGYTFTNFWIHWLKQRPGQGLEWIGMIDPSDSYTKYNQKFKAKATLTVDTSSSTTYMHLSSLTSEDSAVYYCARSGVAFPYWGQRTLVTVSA VL: DIVMTQSQKFMSTSVGDRVSVTCKASQNVGTNVAWYQQKSGQSPKALIYSASHRYSGVPDRFTGSGSGTDFTLTISNVQSEDLAEYFCQQYNSYPYTFGGGTKLEIK
Found: 7.82

Lookup: Please report pKd for the following binder: 2H8.02 (antibody, human IgG1, V domains shown, human IgG1/kappa; also called 2H8_HCvar2 + 2H8_LC) VH: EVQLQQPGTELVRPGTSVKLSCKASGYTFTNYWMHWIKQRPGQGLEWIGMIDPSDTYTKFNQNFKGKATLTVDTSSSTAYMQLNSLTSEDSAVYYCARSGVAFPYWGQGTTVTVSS VL: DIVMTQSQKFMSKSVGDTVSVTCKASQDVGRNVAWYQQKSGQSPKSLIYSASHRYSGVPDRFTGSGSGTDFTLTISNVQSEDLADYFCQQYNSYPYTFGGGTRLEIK
Found: 7.88

Lookup: Give pKd for 2H8.42 (antibody, human IgG1, V domains shown, human IgG1/kappa; also called 2H8_HCvar6 + 2H8_LCvar7) VH: EVQLQQSGAELVRPGTSVKLSCKASGYTFNNYWMHWVKQRPGQGLEWIGMIDPSDDDIKNNQKFKGKATLTVDTSSSTAYMQLISLTSEDSAVYYCARSGVALPYWGQGTLVTVSA VL: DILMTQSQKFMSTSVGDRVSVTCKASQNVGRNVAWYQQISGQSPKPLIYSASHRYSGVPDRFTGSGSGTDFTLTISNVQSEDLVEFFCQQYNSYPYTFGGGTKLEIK
Found: 7.94

Lookup: Specify pKd for 2H8.14 (antibody, human IgG1, V domains shown, human IgG1/kappa; also called 2H8_HCvar2 + 2H8_LCvar3) VH: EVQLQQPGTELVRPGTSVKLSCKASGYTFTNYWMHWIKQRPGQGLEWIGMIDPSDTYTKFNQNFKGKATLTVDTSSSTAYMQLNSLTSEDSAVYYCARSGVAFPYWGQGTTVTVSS VL: DIQMTQSQKFMSTSIGDRVSVTCKASQNVGTNVAWYQQKPGQSPKSLIYSASHWYSGVPDRFTGSGSGTDFTLTISNVQSEDLAEYFCQQYNSYPYTFGGGTKLEIK and stop.
Found: 7.72

Lookup: Tell me pKd reported for 2H8.23 (antibody, human IgG1, V domains shown, human IgG1/kappa; also called 2H8_HCvar5 + 2H8_LCvar4) VH: EVQLQQPGAEVVRPGTSVKLSCKASGYTFTNYWMHWVKQRPGQGLEWIGMIDPSDNYTKYNQKLKGKATLTVDTSSSTANMHVNSLTSEDSAVYFCARSGVAFPYWGQGTLVTVSA VL: DIVMTQSQKFMSTSVGDRVSITCKASQNVGTNVAWYQQKPGQSPKALIYSASYRYSGVPDRFTGSGSGTDFTLTISNVQSEDLAEYFCQQYNSYPYTFGGGTKLEIK
Found: 7.10

Lookup: Give recorded pKd. 2H8.22 (antibody, human IgG1, V domains shown, human IgG1/kappa; also called 2H8_HCvar4 + 2H8_LCvar4) VH: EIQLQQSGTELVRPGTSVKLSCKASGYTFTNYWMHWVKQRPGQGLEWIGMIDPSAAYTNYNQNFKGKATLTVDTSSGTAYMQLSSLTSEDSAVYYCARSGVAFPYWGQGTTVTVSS VL: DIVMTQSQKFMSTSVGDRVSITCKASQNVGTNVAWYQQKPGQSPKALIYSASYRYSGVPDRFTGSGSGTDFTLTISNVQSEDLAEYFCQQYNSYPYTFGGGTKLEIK
Found: 6.52

Lookup: Please give measured pKd of the following entry: 2H8.41 (antibody, human IgG1, V domains shown, human IgG1/kappa; also called 2H8_HCvar5 + 2H8_LCvar7) VH: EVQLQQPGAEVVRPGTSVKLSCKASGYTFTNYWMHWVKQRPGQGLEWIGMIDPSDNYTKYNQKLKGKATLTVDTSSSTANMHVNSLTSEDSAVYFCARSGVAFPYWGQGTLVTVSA VL: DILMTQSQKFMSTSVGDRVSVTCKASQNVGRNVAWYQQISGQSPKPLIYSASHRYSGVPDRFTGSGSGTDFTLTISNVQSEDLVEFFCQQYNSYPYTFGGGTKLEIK
Found: 7.97

Lookup: Output pKd of 2H8.33 (antibody, human IgG1, V domains shown, human IgG1/kappa; also called 2H8_HCvar3 + 2H8_LCvar6) VH: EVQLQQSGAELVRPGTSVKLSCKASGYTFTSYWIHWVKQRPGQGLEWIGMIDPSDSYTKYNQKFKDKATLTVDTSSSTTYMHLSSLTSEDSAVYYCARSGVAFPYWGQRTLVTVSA VL: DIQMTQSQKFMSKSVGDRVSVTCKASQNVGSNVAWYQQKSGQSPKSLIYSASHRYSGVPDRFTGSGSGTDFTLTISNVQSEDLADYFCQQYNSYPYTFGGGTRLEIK
Found: 7.93
